// reported activity coefficient for each item listed
Experiment: activity coefficient (dimensionless); of the first substance listed, at infinite dilution; xn = mol fraction of the nth substance listed
Conditions: 348.15 K; 101.33 kPa; Liquid; Chromatography; x1 = 0
API doc: respond with a numeric literal and nothing else, no unit.

>>> recorded_result("Cc1ccccc1C [1,2-dimethylbenzene] + CC[N+]1(C)CCOCC1.N#CN=C=[N-]")
11.7
>>> recorded_result("Cc1ccc(C)cc1 [1,4-dimethylbenzene] + CC[N+]1(C)CCOCC1.N#CN=C=[N-]")
14.3

Using the record for C1CCCCCC1 [cycloheptane] + CC[N+]1(C)CCOCC1.N#CN=C=[N-] , report its activity coefficient.
179

---

// reported activity coefficient for each item listed
Assay: activity coefficient (dimensionless); of the first substance listed, at infinite dilution; xn = mol fraction of the nth substance listed
Details: 358.15 K; 101.33 kPa; Liquid; Chromatography; x1 = 0
API doc: respond with a numeric literal and nothing else, no unit.

>>> recorded_result("CCCCO [butan-1-ol] + CC[N+]1(C)CCOCC1.N#CN=C=[N-]")
2.9
>>> recorded_result("c1ccncc1 [pyridine] + CC[N+]1(C)CCOCC1.N#CN=C=[N-]")
2.03
>>> recorded_result("CC(C)=O [acetone] + CC[N+]1(C)CCOCC1.N#CN=C=[N-]")
1.99
>>> recorded_result("C#CCCCCC [1-heptyne] + CC[N+]1(C)CCOCC1.N#CN=C=[N-]")
50.3

Using the record for Cc1cccc(C)c1 [1,3-dimethylbenzene] + CC[N+]1(C)CCOCC1.N#CN=C=[N-] , report its activity coefficient.
14.9

# repeat for C#CCCC [1-pentyne] + CC[N+]1(C)CCOCC1.N#CN=C=[N-]
16.5

# repeat for CCc1ccccc1 [ethylbenzene] + CC[N+]1(C)CCOCC1.N#CN=C=[N-]
15.8

# repeat for COC(C)(C)C [2-methoxy-2-methylpropane] + CC[N+]1(C)CCOCC1.N#CN=C=[N-]
36.8

# repeat for CCO [ethanol] + CC[N+]1(C)CCOCC1.N#CN=C=[N-]
1.22

# repeat for CCC[N+](=O)[O-] [1-nitropropane] + CC[N+]1(C)CCOCC1.N#CN=C=[N-]
2.68

# repeat for CCC(=O)OC [methyl propanoate] + CC[N+]1(C)CCOCC1.N#CN=C=[N-]
6.04

# repeat for Cc1ccc(C)cc1 [1,4-dimethylbenzene] + CC[N+]1(C)CCOCC1.N#CN=C=[N-]
14.6
